B1: 5KPH (parent)
chain: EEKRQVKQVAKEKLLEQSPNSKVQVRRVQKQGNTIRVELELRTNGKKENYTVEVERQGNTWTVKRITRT

# Variants of: B1
# Assay remarks: folding stability dG (cDNA display proteolysis); higher = more stable
# Conditions used: PBS, room temperature
Measurement name: folding stability dG (kcal/mol)
Answer in kcal/mol, number only, no unit symbol.

// query Consider the variant "V6R" and give its recorded folding stability dG.
// result 1.97

// query Tell me folding stability dG reported for "E1L"
// result 3.06

// query Kindly indicate its recorded folding stability dG. Item: "V9S"
// result 2.4

// query Note folding stability dG for the variant shown: "Q31W"
// result 4.41

// query Return folding stability dG (reported value) for this variant: "T62R"
// result 3.9

// query Indicate its recorded folding stability dG; the variant in question is "E1G"
// result 3.49

// query Return reported folding stability dG. Input variant: "Q8P"
// result 2.29

// query Report folding stability dG, nothing else, for this variant: "E16M"
// result 3.38

// query Recall and state the measured folding stability dG for "K3D" .
// result 4.41

// query Tell me measured folding stability dG for "N59K" please.
// result 3.73

// query Note folding stability dG for the variant shown: "V23Q"
// result 1.79

// query Report measured folding stability dG; entry is "V25C"
// result 3.09

// query Dear colleague, please send me the reported folding stability dG for "R26E" when you can.
// result 2.58

// query Output measured folding stability dG for this item: "Q31N"
// result 3.84

// query Look up and report measured folding stability dG for this entry: "E40N"
// result 3.12

// query State its folding stability dG: "N44R"
// result 3.66

// query Query folding stability dG for "R4M"
// result 3.84

// query For the variant "E40G" , give its measured folding stability dG value.
// result 2.84

// query Given the variant "Q8N" , write its reported folding stability dG.
// result 3.57

// query Output folding stability dG of "V28I"
// result 3.99

// query Tell me measured folding stability dG for "N44H" please.
// result 3.79

// query Specify reported folding stability dG for the variant shown: "R65V"
// result 3.54

// query Specify folding stability dG for "L15N" and stop.
// result 2.5

// query Check the records and state folding stability dG for "I66W"
// result 3.15

// query State its folding stability dG: "G45H"
// result 3.44

// query Answer with reported folding stability dG of "G58R"
// result 2.97

// query For the variant "T60A" , give its reported folding stability dG.
// result 3.83

// query // Input: "Q29G" . Output its folding stability dG only.
// result 3.42
